Just for reference, the supplement of paper PMC10567573 is where these values come from.

B1: IKZF1 (parent)
chain: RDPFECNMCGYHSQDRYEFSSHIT

- Variants of: B1
- Measurement Description: protein stability index of a GFP-peptide fusion (GPS, HEK-293T) (PSI 1-6); higher = more stable;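 also: lentivirally expressed fusions sorted by FACS into six bins by GFP to DsRed ratio, PSI derived from sequencing read proportions per bin multiplied by bin number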
- Recorded Conditions: c terminus: a fixed tail appended
Experimental Readout: protein stability index

RDPFECNMCGYHSQDRYEFSSHIC = 5.1
RDPFEYNMCGYHSQDRYEFSSHIT = 2.04
RDPFECNMCGYHSQDRYEFSSKIT = 1.92
RDPFECNMCGYHSQDRYEFSSHGT = 2.43
RDPFECNMCGYHSQDRYEFSSHRT = 2
RDPFECNMCGPHSQDRYEFSSHIT = 2.69
RDYFECNMCGYHSQDRYEFSSHIT = 1.5
RDPFECNMCGYHSQDRYEFSPHIT = 2.68
RDCFECNMCGYHSQDRYEFSSHIT = 2.21
RDPFECNMCGYHSQDRYMFSSHIT = 1.54
RDEFECNMCGYHSQDRYEFSSHIT = 2.29
RDPFFCNMCGYHSQDRYEFSSHIT = 1.78
RDMFECNMCGYHSQDRYEFSSHIT = 1.76
RDPFECNMCGYSSQDRYEFSSHIT = 2.06
PDPFECNMCGYHSQDRYEFSSHIT = 2.43
RDPFECNMCGYHSQKRYEFSSHIT = 1.65
RDPFECNMCYYHSQDRYEFSSHIT = 2.66
RDPFECNMCGYHSQDRQEFSSHIT = 2.1
RDPFECNMCGYHSQDTYEFSSHIT = 2.6
RDPFECNMCGYTSQDRYEFSSHIT = 2.53
RDPFECNMCGYHSQDRYEFSVHIT = 2.36
RDPFECNMYGYHSQDRYEFSSHIT = 2.63
RDPFECNMCGYHSCDRYEFSSHIT = 1.87
RDPFECNMCGYHSQDIYEFSSHIT = 2.74
RDPFECNMCGYHSQDNYEFSSHIT = 2.57
RDPFECNMCGYHSSDRYEFSSHIT = 2.43
RDPFECNMCGYHSQLRYEFSSHIT = 1.81
RDPFECNMCGYHSQERYEFSSHIT = 1.87
RDPFECQMCGYHSQDRYEFSSHIT = 2.01
RDPFECNMCGYHSQDRYEFSSNIT = 2.28
RDPFEHNMCGYHSQDRYEFSSHIT = 2.43
RDPFECNGCGYHSQDRYEFSSHIT = 2.07
RDPFECNMCGYHSNDRYEFSSHIT = 2.42
RDPFECNMCGYHSQDRYEFSAHIT = 1.81
RDPFECNMCGYHSWDRYEFSSHIT = 1.22
RDPFECNMCGKHSQDRYEFSSHIT = 3.13
RDPFECNMCGYHNQDRYEFSSHIT = 2.39
RDPFECNMEGYHSQDRYEFSSHIT = 3.7
RDPFECNMCGVHSQDRYEFSSHIT = 2.45
RDPFECNMCGYPSQDRYEFSSHIT = 2.49
RDPFECNMCGYHSQDRYTFSSHIT = 1.54
RDPFECNMCRYHSQDRYEFSSHIT = 2.13
RDPFECNMCGYHSQDRYNFSSHIT = 1.54
RDPFECFMCGYHSQDRYEFSSHIT = 1.33
RDPFECNMCGYHSRDRYEFSSHIT = 2.25
RDPFTCNMCGYHSQDRYEFSSHIT = 2.38
